Target: rat histamine H3 receptor (Rattus norvegicus)
Construct: encoding the entire 445-amino-acid rat histamine H3 receptor; expressed in transfected cells
Assay: Rat H3 radioligand binding ([3H]-N-alpha-methylhistamine, CHO-A3 cell membranes, SPA)
Settings: Table B, binding constant as letter class; read-out: rat H3 Ki
pKi: −log10 of the molar value.
observed.property: pKi

// worked examples, pKi included
C[C@@H]1CCCN1CCCOc1ccc(-c2cnn(C)c(=O)c2)cc1 [Example 91]: 7.00 to 10.00
C[C@@H]1CCCN1CCCOc1c(Br)cc(-c2cn[nH]c(=O)c2)cc1Br [Example 229]: 6.00 to 6.30
Cn1ncc(-c2ccc(OCCCN3CCCCCC3)cc2)cc1=O [Example 93]: 7.00 to 10.00
CC(C)n1nc(-c2ccc(OC3CCN(C4CCC4)CC3)nc2)ccc1=O [Example 145]: 7.00 to 10.00

Next up:
Exercise: Return reported pKi; argument: Cn1nc(-c2ccc(OCCCN3CCC[C@H]3CO)cc2)c2c(c1=O)CCCC2 [Example 124]
Solution: 7.00 to 10.00

###

Reported pKi by item:
Target: human H3 receptor (Homo sapiens, UniProt Q9Y5N1)
Construct: expressed in transfected cells
Sequence (Q9Y5N1 whole entry): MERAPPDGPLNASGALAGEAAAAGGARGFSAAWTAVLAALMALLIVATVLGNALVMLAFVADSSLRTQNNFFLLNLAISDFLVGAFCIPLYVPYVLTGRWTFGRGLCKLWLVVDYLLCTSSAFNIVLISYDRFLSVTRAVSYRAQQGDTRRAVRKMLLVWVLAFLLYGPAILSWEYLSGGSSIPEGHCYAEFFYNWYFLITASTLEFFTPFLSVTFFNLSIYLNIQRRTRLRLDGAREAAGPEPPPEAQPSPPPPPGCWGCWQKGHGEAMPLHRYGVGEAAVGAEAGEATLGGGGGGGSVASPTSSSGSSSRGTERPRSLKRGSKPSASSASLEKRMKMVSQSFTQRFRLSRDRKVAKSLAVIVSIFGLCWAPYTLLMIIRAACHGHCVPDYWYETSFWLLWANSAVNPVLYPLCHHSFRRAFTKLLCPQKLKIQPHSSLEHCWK
Assay: Human H3 radioligand binding ([3H]-N-alpha-methylhistamine, CHO cell membranes, SPA)
Details: Table B, binding constant as letter class
pKi: −log10 of the molar value.

Exercise: Return reported pKi; argument: COc1cc(-c2ccc(=O)[nH]n2)ccc1OCCCN1CCCCC1
Solution: 6.30 to 7.00

Exercise: Return reported pKi; argument: O=C1C2CC2C(c2ccc(OC3CCN(C4CCC4)CC3)cc2)=NN1CC(F)(F)F (centres unmarked)
Solution: 7.00 to 10.00

Exercise: Return reported pKi; argument: O=C1CCC(c2ccc(OC3CCNCC3)cc2)=NN1C1CCC1
Solution: < 6.00

Exercise: Return reported pKi; argument: CC1(C)CC(c2ccc(OC3CCN(C4CCC4)CC3)c(F)c2)=NNC1=O
Solution: 7.00 to 10.00

Exercise: Return reported pKi; argument: O=c1ccc(-c2ccc(OCCCN3CCCC3)cc2)n[nH]1
Solution: 7.00 to 10.00

###

Counter-ions that a name gives are not always drawn.
observed.property: melting point

// worked examples, melting point included
CC(C)n1nc(-c2ccc(OCCCN3CCCC(C)(C)C3)cc2)c2sccc2c1=O (as salt: HCl) [Example 25]: 100 to 102 °C
C[C@@H]1CCCN1CCCOc1ccc(-c2ccc(=O)n(CCF)n2)cc1 (as salt: hydrochloride) [Example 118]: 135 to 136 °C
C[C@@H]1CCCN1CCCOc1ccc2c(c1)CCc1cc(=O)n(-c3ccccc3)nc1-2 (as salt: HCl) [Example 76]: 140 to 142 °C

Next up:
Exercise: Return reported melting point; argument: Cc1cc(OCCCN2CCC[C@H]2C)ccc1C1=NNC(=O)CC1 (as salt: HCl) [Example 199]
Solution: 121 to 123 °C

###

Reported pKi by item:
Biological target: rat histamine H3 receptor (Rattus norvegicus, UniProt Q9QYN8)
Construct: encoding the entire 445-amino-acid rat histamine H3 receptor; expressed in transfected cells
Sequence (Q9QYN8 whole entry): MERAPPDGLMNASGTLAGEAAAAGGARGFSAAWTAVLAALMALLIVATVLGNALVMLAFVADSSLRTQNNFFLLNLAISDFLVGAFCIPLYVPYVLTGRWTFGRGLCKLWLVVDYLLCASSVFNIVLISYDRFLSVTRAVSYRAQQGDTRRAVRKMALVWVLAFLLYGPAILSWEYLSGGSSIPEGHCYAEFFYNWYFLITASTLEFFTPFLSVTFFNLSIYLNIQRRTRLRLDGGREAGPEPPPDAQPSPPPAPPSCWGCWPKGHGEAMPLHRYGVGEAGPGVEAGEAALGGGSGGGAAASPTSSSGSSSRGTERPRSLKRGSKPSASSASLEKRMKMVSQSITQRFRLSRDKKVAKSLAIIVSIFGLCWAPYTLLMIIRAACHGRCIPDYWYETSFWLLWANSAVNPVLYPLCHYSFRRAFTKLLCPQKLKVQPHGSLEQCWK
Test: Rat H3 radioligand binding ([3H]-N-alpha-methylhistamine, CHO-A3 cell membranes, SPA)
Conditions: Table A, binding constant as letter class; read-out: Rat H3 Ki
Protocol: This was engineered into the pIRES-neo3 mammalian expression vector, which was stably transfected into the CHO-A3 cell line (Euroscreen, Belgium), followed by clonal selection by limiting dilution. […] Membranes were resuspended in 50 mM Tris HCl (pH 7.4), 5 mM MgCl2, 0.1% BSA. […] Non-specific binding was determined in the presence of 10 μM clobenpropit. Radioligand bound to receptor, and therefore in proximity to the scintillation beads, was measured using a MicroBeta scintillation counter.
pKi: −log10 of the molar value.

// worked examples, pKi included
CCCn1nc(-c2ccc(OCCCN3CCC[C@H]3CN3CCCC3)cc2)c2sccc2c1=O [Example 36]: < 6.00
O=c1c2ccsc2c(-c2ccc(OCCCN3CCCCC3)cc2)nn1Cc1ccc(Cl)cc1 [Example 37]: 6.30 to 7.00

Next up:
Exercise: Return reported pKi; argument: Cn1nc(-c2ccc(OC3CCN(C4CCC4)CC3)cc2)ccc1=O [Example 74]
Solution: 7.00 to 10.00
